For HDAC1 (Homo sapiens (Human), UniProt Q13547), measured IC50 is reported for the entries below.
Output spec: scalar in nM, unitless text.

record_smiles=COc1cc2ncnc(Nc3ccc(C(=O)Nc4ccccc4N)cc3)c2cc1OCCCN1CCOCC1 recorded_measurement=735

Problem: Requested field: IC50. Item: `Nc1ccccc1NC(=O)c1ccc(CNc2ncnc3ccccc23)cc1`
Result: 212

Problem: Record request: IC50 value, item `Nc1ccc(F)cc1NC(=O)c1ccc(CNc2ncnc3ccccc23)cc1`
Result: 517

Problem: # lookup: IC50 of `COc1cc2ncnc(Nc3ccc(C(=O)Nc4cc(F)ccc4N)cc3)c2cc1OCCCN1CCOCC1`
Result: 330

====

system: Hep3B2.1-7 human liver cancer cells; assay: In vitro anti-proliferative effect, CCK-8 method, Hep3B; format: cell-based; conditions: Homo sapiens; Hep3B cell strain, compound at 10 μM, CCK-8 method
Threshold rule: inhibition at 10 µM greater than or equal to 20% is MET; below that, NOT MET.

compound="Nc1ccccc1NC(=O)c1ccc(Nc2ncnc3cc(F)ccc23)cc1 [Compound V-13]" classification=MET

Problem: Given the entry CC(=O)Nc1ccc2ncnc(Nc3ccc(C(=O)Nc4ccccc4N)cc3)c2c1 [Compound V-21] , answer whether its inhibition at 10 µM meets or surpasses 20%.
Result: NOT MET

Problem: Could you tell me if the measured inhibition at 10 µM of COC(=O)Cc1ccc2ncnc(Nc3ccc(C(=O)Nc4ccccc4N)cc3)c2c1 [Compound V-22] reaches 20% or more?
Result: MET

Problem: Reported inhibition at 10 µM at or above 20%? Nc1ccccc1NC(=O)c1ccc(CNc2ncnc3c(F)cccc23)cc1 [Compound V-43]
Result: MET

Problem: Confirm if inhibition at 10 µM reported for the compound COc1cccc2ncnc(Nc3ccc(C(=O)Nc4ccccc4N)cc3)c12 [Compound V-7] is 20% or above.
Result: NOT MET

Problem: Hello, I need to know if CC(=O)Nc1ccc2ncnc(NCc3ccc(C(=O)Nc4ccncc4N)cc3)c2c1 [Compound V-47] has measured inhibition at 10 µM not below 20%. Thanks!
Result: NOT MET

Problem: Determine whether measured inhibition at 10 µM meets or exceeds 20% for Nc1cnccc1NC(=O)c1ccc(Nc2ncnc3ccccc23)cc1 [Compound V-2]
Result: MET

Problem: Given CS(=O)(=O)CCNCc1ccc(-c2ccc3ncnc(Nc4ccc(C(=O)Nc5cc(F)ccc5N)cc4)c3c2)o1 [Compound V-20] , state whether its inhibition at 10 µM is at least 20%.
Result: MET

====

tested on: HDACs; experiment: In vitro inhibition of HDACs (HDAC Inhibitor Drug Screening Kit, Biovision K340-100); format: biochemical; conditions: 200 μM
experimental endpoint: Inhibition percentage (%) towards HDACs
The reply should be a number in %, with the unit left off.

compound="Nc1ccccc1NC(=O)c1ccc(CNC(=O)OCc2cccnc2)cc1 [MS-275, reference compound]" units_text=% recorded_measurement=60.5
compound=Nc1ccc(F)cc1NC(=O)c1ccc(Nc2ncnc3ccccc23)cc1 units_text=% recorded_measurement=36.0
compound=COc1ccc2ncnc(Nc3ccc(C(=O)Nc4ccccc4N)cc3)c2c1 units_text=% recorded_measurement=16.8
compound=COc1cccc2c(NCc3ccc(C(=O)Nc4cc(F)ccc4N)cc3)ncnc12 units_text=% recorded_measurement=47.8
compound=COc1cccc2ncnc(Nc3ccc(C(=O)Nc4ccncc4N)cc3)c12 units_text=% recorded_measurement=41.1

Problem: Give recorded Inhibition percentage (%) towards HDACs with HDACs for the following compound: `COc1cccc2c(Nc3ccc(C(=O)Nc4cc(F)ccc4N)cc3)ncnc12`
Result: 32.9

Problem: Can you look up Inhibition percentage (%) towards HDACs on HDACs for `COc1cc2ncnc(Nc3ccc(C(=O)Nc4ccccc4N)cc3)c2cc1OCCCN1CCOCC1` ?
Result: 60.7

Problem: Entry `COCCOc1cc2ncnc(Nc3ccc(C(=O)Nc4ccncc4N)cc3)c2cc1OCCOC` , system HDACs: what Inhibition percentage (%) towards HDACs was measured?
Result: 56.8

Problem: Give Inhibition percentage (%) towards HDACs (HDACs) of the following compound: `COc1ccc2ncnc(NCc3ccc(C(=O)Nc4ccccc4N)cc3)c2c1`
Result: 66.8

Problem: Enter reported Inhibition percentage (%) towards HDACs observed with HDACs for `Nc1ccc(F)cc1NC(=O)c1ccc(CNc2ncnc3ccccc23)cc1`
Result: 31.0

Problem: What value of Inhibition percentage (%) towards HDACs on HDACs does `COc1cc2ncnc(Nc3ccc(C(=O)Nc4ccncc4N)cc3)c2cc1OC` have?
Result: 70.3

Problem: Provide value of Inhibition percentage (%) towards HDACs for this record tested with HDACs: `CS(=O)(=O)CCNCc1ccc(-c2ccc3ncnc(Nc4ccc(C(=O)Nc5cc(F)ccc5N)cc4)c3c2)o1`
Result: 56.9

Problem: Tell me reported Inhibition percentage (%) towards HDACs for `Nc1cnccc1NC(=O)c1ccc(Nc2ncnc3ccccc23)cc1` , tested with HDACs.
Result: 28.0

Problem: Checklist item: Inhibition percentage (%) towards HDACs tested on HDACs, entry `COc1cc2ncnc(Nc3ccc(C(=O)Nc4cc(-c5cccs5)ccc4N)cc3)c2cc1OC` , value?
Result: 37.3

Problem: For the record `Nc1ccccc1NC(=O)c1ccc(Nc2ncnc3ccccc23)cc1` , what value of Inhibition percentage (%) towards HDACs is listed for HDACs?
Result: 19.8

Problem: // lookup Inhibition percentage (%) towards HDACs | system=HDACs | key= `COCCOc1cc2ncnc(NCc3ccc(C(=O)Nc4ccncc4N)cc3)c2cc1OCCOC`
Result: 58.0

Problem: Report Inhibition percentage (%) towards HDACs for `CC(=O)Nc1ccc2ncnc(NCc3ccc(C(=O)Nc4cc(-c5ccco5)ccc4N)cc3)c2c1` tested on HDACs.
Result: 42.2
